Recorded % remaining at 45 min values for a group of molecules are listed next.
Test: Metabolic stability in human microsomes
Conditions: Human microsome, 45 min
Lab book: enter the figure in %, no units written.

INSERT INTO measurements (molecule, reported_result) VALUES
  ('COc1ccc(C(=O)Nc2cc(-c3nc4ccccc4[nH]3)n[nH]2)cc1Cl [Compound 1, reference compound]', 3.2),
  ('COc1cc(C(=O)Nc2cc(-c3nc4ccccc4[nH]3)n[nH]2)ccc1Cl [Compound 20]', 52),
  ('COc1ccc(C(=O)Nc2cc(-c3nc4c(F)cccc4[nH]3)[nH]n2)cc1Cl [Compound 73]', 13);

# input for lookup
Asked: Fill in the blank: the reported % remaining at 45 min of O=C(Nc1cc(-c2nc3ccccc3[nH]2)n[nH]1)c1ccc(O)c(Cl)c1 [Compound 24] is ____.
Given back: 93
